System: LOC_OS02G07810-cb001;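 further: purified Escherichia coli-expressed rice kinase domain construct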
EXPERIMENT: thermal shift delta Tm vs DMSO control; higher = stronger stabilization (binding)
RUN_CONDITIONS: 12.5 µM; protein concentration 2 µM
Returns one of 1.0 or 0.0; 1.0 when thermal shift delta Tm is >= 0.7 °C.

The examples below pair each entry with its known result.
> print(dat)
                                   molecule  cat
1  COc1cc2/c(=N/c3ccc(Br)cc3F)nc[nH]c2cc1OCC1CCN(C)CC1 [Vandetanib (ZD6474)]  0.0
2  COc1ccc(Oc2cc(NCCC(F)(F)F)c3ncc(-c4ccc(C(=O)NC5CC5)c(C)c4)n3n2)c(F)c1F  1.0
3  Nc1cc(C(F)(F)F)c(-c2cc(N3CCOCC3)nc(N3CCOCC3)n2)cn1  1.0

State whether the measured thermal shift delta Tm reaches 0.7 °C, counting equality as reaching it, for COc1ccc2c(c1)[C@]1(C[C@H]1c1ccc3c(/C=C/c4ccc(CN5C[C@@H](C)O[C@@H](C)C5)cc4)n[nH]c3c1)C(=O)N2
0.0

State whether the measured thermal shift delta Tm reaches 0.7 °C, counting equality as reaching it, for CCCCCCCCCC(=O)CC(O)S(=O)(=O)O (stereo not drawn) [Sodium Houttuyfonate]
0.0

State whether the measured thermal shift delta Tm reaches 0.7 °C, counting equality as reaching it, for Oc1ccc(-c2nc(-c3ccc(F)cc3)c(-c3ccncc3)[nH]2)cc1
1.0

State whether the measured thermal shift delta Tm reaches 0.7 °C, counting equality as reaching it, for Nc1nc(N)c(N=O)c(OCC2CCCCC2)n1
0.0

State whether the measured thermal shift delta Tm reaches 0.7 °C, counting equality as reaching it, for O=C(Nc1cccnc1)c1cc(-c2ccnc(F)c2)ccc1OCc1ccccc1
0.0

State whether the measured thermal shift delta Tm reaches 0.7 °C, counting equality as reaching it, for O=c1sn(-c2cccc3ccccc23)c(=O)n1Cc1ccccc1
1.0

State whether the measured thermal shift delta Tm reaches 0.7 °C, counting equality as reaching it, for C=CC(=O)N1CC[C@@H](Oc2nc(Nc3ccc(N4CCC(N5CCN(C)CC5)CC4)cc3)c(C(N)=O)nc2CC)C1
0.0

State whether the measured thermal shift delta Tm reaches 0.7 °C, counting equality as reaching it, for COc1ccc(CNC(=O)Nc2ncc([N+](=O)[O-])s2)cc1
1.0

State whether the measured thermal shift delta Tm reaches 0.7 °C, counting equality as reaching it, for COc1cc(Nc2ncc3c(n2)-c2ccc(Cl)cc2C(c2c(F)cccc2OC)=NC3)ccc1C(=O)O
0.0

State whether the measured thermal shift delta Tm reaches 0.7 °C, counting equality as reaching it, for COc1cc(CCc2cc(NC(=O)c3ccc(N4CC(C)NC(C)C4)cc3)n[nH]2)cc(OC)c1 (stereo not drawn)
1.0

State whether the measured thermal shift delta Tm reaches 0.7 °C, counting equality as reaching it, for CC1(C)OCCn2c1nc1c(N3CCOCC3)nc(-c3cnc(N)nc3)nc12
0.0

State whether the measured thermal shift delta Tm reaches 0.7 °C, counting equality as reaching it, for CC[C@@H](N)CNc1ccnc(-c2cc(-c3cnn(C)c3)ccc2O)n1
0.0

State whether the measured thermal shift delta Tm reaches 0.7 °C, counting equality as reaching it, for COc1cc2ncnc(Oc3cccc(NC(=O)Nc4cc(C(C)(C)C(F)(F)F)on4)c3)c2cc1OC
1.0

State whether the measured thermal shift delta Tm reaches 0.7 °C, counting equality as reaching it, for N#CC[C@H](C1CCCC1)n1cc(-c2ncnc3[nH]ccc23)cn1
1.0

State whether the measured thermal shift delta Tm reaches 0.7 °C, counting equality as reaching it, for Oc1cccc(-c2nc(N3CCOCC3)c3oc4ncccc4c3n2)c1
1.0
